From: ChEMBL document CHEMBL1145089

TEST_NAME: Area under curve (AUC) was determined
Format: ADME
Parameters: concentration or dose not given beside the values
Listed compounds paired with reported AUC

{"QUERY_SMILES": "Cc1cccc(C)c1OCC(=O)N[C@@H](Cc1ccccc1)[C@H](OC(=O)CCC(=O)NCCN1CCOCC1)C(=O)N1CSC(C)(C)[C@H]1C(=O)NC(C)(C)C.Cl", "AUC": "5250 ng·h/mL"}
{"QUERY_SMILES": "Cc1cccc(C)c1OCC(=O)N[C@@H](Cc1ccccc1)[C@H](O)C(=O)N1CSC(C)(C)[C@H]1C(=O)NC(C)(C)C", "AUC": "3580 ng·h/mL"}
{"QUERY_SMILES": "Cc1cccc(C)c1OCC(=O)N[C@@H](Cc1ccccc1)[C@H](OC(=O)CCC(=O)NCCN)C(=O)N1CSC(C)(C)[C@H]1C(=O)NC(C)(C)C.Cl", "AUC": "3980 ng·h/mL"}

###

TEST_NAME: Bioavailability
Format: ADME, organism-based
CONDITION_SUMMARY: eutheria, in vivo

{"QUERY_SMILES": "Cc1cccc(C)c1OCC(=O)N[C@@H](Cc1ccccc1)[C@H](OC(=O)CCC(=O)NCc1ccncc1)C(=O)N1CSC(C)(C)[C@H]1C(=O)NC(C)(C)C.Cl", "UNIT_LABEL": "%", "bioavailability": 29}
{"QUERY_SMILES": "Cc1cccc(C)c1OCC(=O)N[C@@H](Cc1ccccc1)[C@H](OC(=O)CCC(=O)NCCN1CCCC1)C(=O)N1CSC(C)(C)[C@H]1C(=O)NC(C)(C)C.Cl", "UNIT_LABEL": "%", "bioavailability": 16.1}
{"QUERY_SMILES": "Cc1cccc(C)c1OCC(=O)N[C@@H](Cc1ccccc1)[C@H](OC(=O)CCC(=O)NCCN1CCOCC1)C(=O)N1CSC(C)(C)[C@H]1C(=O)NC(C)(C)C.Cl", "UNIT_LABEL": "%", "bioavailability": 23.1}
{"QUERY_SMILES": "Cc1cccc(C)c1OCC(=O)N[C@@H](Cc1ccccc1)[C@H](OC(=O)CCC(=O)NCCCN1CCOCC1)C(=O)N1CSC(C)(C)[C@H]1C(=O)NC(C)(C)C.Cl", "UNIT_LABEL": "%", "bioavailability": 6.9}
{"QUERY_SMILES": "Cc1cccc(C)c1OCC(=O)N[C@@H](Cc1ccccc1)[C@H](OC(=O)CCCC(=O)NCCN)C(=O)N1CSC(C)(C)[C@H]1C(=O)NC(C)(C)C.Cl", "UNIT_LABEL": "%", "bioavailability": 9.4}
{"QUERY_SMILES": "Cc1cccc(C)c1OCC(=O)N[C@@H](Cc1ccccc1)[C@H](OC(=O)CCC(=O)NCc1cccnc1)C(=O)N1CSC(C)(C)[C@H]1C(=O)NC(C)(C)C.Cl", "UNIT_LABEL": "%", "bioavailability": 26.4}

###

Listed molecules paired with reported AUC
TEST_NAME: Area under curve (AUC) was determined
Assay type: ADME
Parameters: concentration or dose not given beside the values

{"QUERY_SMILES": "Cc1cccc(C)c1OCC(=O)N[C@@H](Cc1ccccc1)[C@H](OC(=O)CCC(=O)NCc1ccncc1)C(=O)N1CSC(C)(C)[C@H]1C(=O)NC(C)(C)C.Cl", "UNIT_LABEL": "ng·h/mL", "AUC": 6570}
{"QUERY_SMILES": "Cc1cccc(C)c1OCC(=O)N[C@@H](Cc1ccccc1)[C@H](OC(=O)CCC(=O)NCCCN1CCOCC1)C(=O)N1CSC(C)(C)[C@H]1C(=O)NC(C)(C)C.Cl", "UNIT_LABEL": "ng·h/mL", "AUC": 1570}
{"QUERY_SMILES": "Cc1cccc(C)c1OCC(=O)N[C@@H](Cc1ccccc1)[C@H](OC(=O)CCCC(=O)NCCN1CCOCC1)C(=O)N1CSC(C)(C)[C@H]1C(=O)NC(C)(C)C.Cl", "UNIT_LABEL": "ng·h/mL", "AUC": 1230}
{"QUERY_SMILES": "Cc1cccc(C)c1OCC(=O)N[C@@H](Cc1ccccc1)[C@H](OC(=O)CCC(=O)NCCN1CCCC1)C(=O)N1CSC(C)(C)[C@H]1C(=O)NC(C)(C)C.Cl", "UNIT_LABEL": "ng·h/mL", "AUC": 3650}
{"QUERY_SMILES": "Cc1cccc(C)c1OCC(=O)N[C@@H](Cc1ccccc1)[C@H](OC(=O)CCCC(=O)NCCN)C(=O)N1CSC(C)(C)[C@H]1C(=O)NC(C)(C)C.Cl", "UNIT_LABEL": "ng·h/mL", "AUC": 2130}
{"QUERY_SMILES": "Cc1cccc(C)c1OCC(=O)N[C@@H](Cc1ccccc1)[C@H](OC(=O)CCC(=O)NCc1cccnc1)C(=O)N1CSC(C)(C)[C@H]1C(=O)NC(C)(C)C.Cl", "UNIT_LABEL": "ng·h/mL", "AUC": 6000}
